The reader will find reported protein stability index values listed item by item below.
B1: TRAF3IP2 (parent)
chain: PRPPSNPPARGTLKTSNLPEELRK

variants of: B1; test: protein stability index of a GFP-peptide fusion (GPS, HEK-293T) (PSI 1-6); higher = more stable; details: c terminus: a fixed tail appended;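 note: lentivirally expressed fusions sorted by FACS into six bins by GFP to DsRed ratio, PSI derived from sequencing read proportions per bin multiplied by bin number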
No unit in the answer, only the number.

Here are 5 variants together with their reported answers.
# macromolecule_sequence, protein stability index
rows = [
    ("PRPPSNPPARGTLKTSNLPEVLRK [E21V]", 3.74),
    ("PRWPSNPPARGTLKTSNLPEELRK [P3W]", 4.83),
    ("PRPPSNPPARGTLKTLNLPEELRK [S16L]", 4.75),
    ("PRPPSNPPARGTLKTSNVPEELRK [L18V]", 5.06),
    ("PRPPSNPPWRGTLKTSNLPEELRK [A9W]", 4.47),
]

Consider the variant PRPPSNPPARGTLKTSNLPEELRR [K24R] and give its measured protein stability index.
4.75

Consider the variant PRPPSNPPARGTLKTSNLPEALRK [E21A] and give its measured protein stability index.
4.6

Every entry's value here was drawn from the supplement of paper PMC10567573.
